Assay: logP determination by HPLC (EEC directive 79/831 Annex V. A8)
Format: physicochemical
Conditions: HPLC gradient method, acetonitrile/0.1% aqueous phosphoric acid; Table 1
Each entry gets n if its logP* stays under 3, and y if its logP* is 3 or above.

# example entries with known answers
{"query.smiles": "Fc1ccccc1-c1c(Cl)nc2ncnn2c1NOCc1cccc(C(F)(F)F)c1", "discrete.label": "y"}
{"query.smiles": "CCONc1c(-c2c(F)cc(F)cc2F)c(Cl)nc2ncnn12", "discrete.label": "n"}
{"query.smiles": "Fc1cc(F)c(-c2c(Cl)nc3ncnn3c2NOCc2nc(-c3ccccc3)cs2)c(F)c1", "discrete.label": "y"}

Incoming: Can N#CCCNNc1c(-c2ccccc2F)c(Cl)nc2ncnn12 be said to have logP* at or above 3?
Outgoing: n

Incoming: Can CC(C)(C)ONc1c(-c2c(F)cc(F)cc2F)c(Cl)nc2ncnn12 be said to have logP* at or above 3?
Outgoing: n

Incoming: Can C=CCONc1c(-c2c(F)cccc2F)c(Cl)nc2ncnn12 be said to have logP* at or above 3?
Outgoing: n

Incoming: Can CCONc1c(-c2c(F)c(F)c(F)c(F)c2F)c(Cl)nc2ncnn12 be said to have logP* at or above 3?
Outgoing: n

Incoming: Can Fc1c(F)c(F)c(-c2c(Cl)nc3ncnn3c2NOCc2cc(Cl)cc(Cl)c2)c(F)c1F be said to have logP* at or above 3?
Outgoing: y

Incoming: Can Fc1cccc(F)c1-c1c(Cl)nc2ncnn2c1NOCc1cccc(C(F)(F)F)c1 be said to have logP* at or above 3?
Outgoing: y

----------
Test: logP determination by HPLC (EEC directive 79/831 Annex V. A8)
Type: physicochemical
Conditions: HPLC gradient method, acetonitrile/0.1% aqueous phosphoric acid; Table 1
value.type: logP*
Form field (numeric): enter value without unit.

The following compounds have reported results that may help.
{"query.smiles": "NN(c1c(-c2c(Cl)cccc2Cl)c(Cl)nc2ncnn12)C1CCCC1", "logP*": 3.37}
{"query.smiles": "Fc1c(F)c(F)c(-c2c(Cl)nc3ncnn3c2NOCc2ccccc2)c(F)c1F", "logP*": 3.37}
{"query.smiles": "CCCCONc1c(-c2c(F)c(F)c(F)c(F)c2F)c(Cl)nc2ncnn12", "logP*": 3.49}

The recorded logP* for NN(c1c(-c2c(F)cc(F)cc2F)c(Cl)nc2ncnn12)C1CCCC1 is 3.07

The recorded logP* for Fc1cccc(F)c1-c1c(Cl)nc2ncnn2c1NOCc1ccccc1 is 2.8

The recorded logP* for CCCCNNc1c(-c2ccccc2F)c(Cl)nc2ncnn12 is 2.77

The recorded logP* for CC(C)CONc1c(-c2c(F)cc(F)cc2F)c(Cl)nc2ncnn12 is 3

The recorded logP* for CCCCN(N)c1c(-c2c(F)cc(F)cc2F)c(Cl)nc2ncnn12 is 2.96

The recorded logP* for CC(C)CN(N)c1c(-c2c(F)cc(F)cc2F)c(Cl)nc2ncnn12 is 2.91

The recorded logP* for CC(C)CN(N)c1c(-c2cc(C(F)(F)F)ccc2Cl)c(Cl)nc2ncnn12 is 3.51

The recorded logP* for Fc1c(F)c(F)c(-c2c(Cl)nc3ncnn3c2NOCc2cccc(Cl)c2)c(F)c1F is 3.64
